# System: T-47D breast
# protocol_description: NCI tumour cell line growth inhibition, 48 h
quantity_measured: log10(TGI) (log10 of the value in µM)

- compound: "C[C@]12CC[C@H](O)CC1=CC[C@@H]1[C@@H]2CC[C@]2(C)C(=O)/C(=C/c3ccc([N+](=O)[O-])cc3)C[C@@H]12"
  log10(TGI): 1.79
- compound: "Cc1ccc2nc3c(n2c1)C(=O)C(=O)c1ccccc1-3"
  log10(TGI): 0.24
- compound: "CN(C)c1ccc(Nc2c3ccccc3nc3cc(NC(=O)CCN4CCCC4)ccc23)cc1"
  log10(TGI): 0.39
- compound: "O=C(NNS(=O)(=O)c1ccccc1)c1csc(NC(=S)NC2CCCCC2)n1"
  log10(TGI): 1.72
- compound: "O=C1/C(=C/c2ccc(Cl)cc2)CCC1CN1CCOCC1 (stereo not given)"
  log10(TGI): 0.80
- compound: "O=C1C(Br)=C(Br)C(=O)c2ccccc21"
  log10(TGI): 1.10
- compound: "COc1ccc(/C=N\\NC(=O)c2ccc3nc(-c4ccc(Cl)cc4)[nH]c3c2)cc1"
  log10(TGI): 0.68
- compound: "O=C1c2cccnc2-c2nccc3c2c1nc1ccc(Br)cc13"
  log10(TGI): -0.26
